target: human F508del-CFTR (Homo sapiens, UniProt P13569, DEL508-508)
Sequence (P13569 with tags, fused parts or gaps DEL508-508): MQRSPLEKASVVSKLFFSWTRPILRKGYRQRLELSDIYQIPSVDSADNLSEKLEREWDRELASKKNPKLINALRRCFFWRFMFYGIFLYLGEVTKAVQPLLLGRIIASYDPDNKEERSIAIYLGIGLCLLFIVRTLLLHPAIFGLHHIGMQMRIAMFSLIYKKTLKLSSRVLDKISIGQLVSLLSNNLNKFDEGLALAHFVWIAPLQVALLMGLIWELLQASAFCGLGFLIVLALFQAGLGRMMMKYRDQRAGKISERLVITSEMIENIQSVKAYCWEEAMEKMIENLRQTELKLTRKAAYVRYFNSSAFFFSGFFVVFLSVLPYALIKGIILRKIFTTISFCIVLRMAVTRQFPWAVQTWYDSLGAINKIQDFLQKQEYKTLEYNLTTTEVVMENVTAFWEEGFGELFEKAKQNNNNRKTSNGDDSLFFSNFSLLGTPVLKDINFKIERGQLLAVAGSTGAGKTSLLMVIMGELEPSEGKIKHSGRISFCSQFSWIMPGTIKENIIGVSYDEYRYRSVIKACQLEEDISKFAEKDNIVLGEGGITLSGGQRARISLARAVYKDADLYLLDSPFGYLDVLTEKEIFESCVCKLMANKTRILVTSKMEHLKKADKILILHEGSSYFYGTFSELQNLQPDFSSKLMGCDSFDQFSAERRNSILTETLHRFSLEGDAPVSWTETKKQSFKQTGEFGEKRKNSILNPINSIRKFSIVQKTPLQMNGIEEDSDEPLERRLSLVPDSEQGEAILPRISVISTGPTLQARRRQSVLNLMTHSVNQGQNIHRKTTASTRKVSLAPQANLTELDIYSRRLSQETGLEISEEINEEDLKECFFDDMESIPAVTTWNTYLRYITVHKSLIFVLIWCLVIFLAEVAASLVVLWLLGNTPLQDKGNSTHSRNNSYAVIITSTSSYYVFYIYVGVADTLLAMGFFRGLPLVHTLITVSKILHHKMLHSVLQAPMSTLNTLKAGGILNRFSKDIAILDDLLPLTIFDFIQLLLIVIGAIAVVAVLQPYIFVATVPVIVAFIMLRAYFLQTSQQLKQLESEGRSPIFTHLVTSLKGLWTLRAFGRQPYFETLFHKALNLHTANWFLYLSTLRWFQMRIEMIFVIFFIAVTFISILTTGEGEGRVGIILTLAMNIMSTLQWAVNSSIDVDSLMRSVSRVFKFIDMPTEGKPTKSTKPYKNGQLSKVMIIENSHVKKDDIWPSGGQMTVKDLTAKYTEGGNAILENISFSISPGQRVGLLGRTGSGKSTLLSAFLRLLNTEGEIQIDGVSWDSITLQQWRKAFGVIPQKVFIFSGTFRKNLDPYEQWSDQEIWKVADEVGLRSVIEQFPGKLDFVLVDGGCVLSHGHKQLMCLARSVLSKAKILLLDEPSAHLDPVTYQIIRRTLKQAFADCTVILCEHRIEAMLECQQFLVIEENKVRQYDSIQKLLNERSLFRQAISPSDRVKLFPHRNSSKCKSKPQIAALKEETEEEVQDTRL
protocol.description: F508del-CFTR cell surface expression (corrector activity), DiscoveRx ß-galactosidase complementation chemiluminescence assay in recombinant U2OS cell line
experimental.parameters: EC50, F508del-CFTR cell surface expression, U2OS cells, 16h compound incubation; geomean values
pEC50: −log10 of the molar value.
Parameter pEC50: see the listing below.

molecule: COc1cccc(CCNC(=O)[C@@H]2CC(=O)N(C)[C@@H](CC(C)C)C(=O)N3CCCC[C@H]3C(=O)N[C@H](Cc3ccccc3)COc3cc(OC)cc(OC)c3C(=O)N2)c1 [Example 601]
pEC50: 6.23
--
molecule: COc1cccc(CCNC(=O)[C@@H]2CC(=O)N(C)[C@@H](CC(C)C)C(=O)N(C)C3(CC3)C(=O)N[C@H](Cc3ccccc3)COc3cnc4ccccc4c3C(=O)N2)c1 [Example 433]
pEC50: 6.78
--
molecule: COc1cccc(CCNC(=O)[C@@H]2CC(=O)N(C)[C@@H](CC(C)C)C(=O)N(C)CC(=O)N[C@H](Cc3ccccc3)COc3cnc(OC)cc3C(=O)N2)c1 [Example 647]
pEC50: 6.09
--
molecule: COc1cccc(CCNC(=O)[C@@H]2CC(=O)N(C)[C@@H](CC(C)C)C(=O)N(C)C3(CC3)C(=O)N[C@H](Cc3ccccc3)COc3ccc4nc(C)oc4c3C(=O)N2)c1 [Example 628]
pEC50: 6.44
--
molecule: CC(C)C[C@H]1C(=O)N2CCCC[C@@H]2C(=O)N[C@H](Cc2ccccc2)COc2cnc3ccccc3c2C(=O)N[C@H](C(=O)NCCc2cccc(-n3nccn3)c2)CC(=O)N1C [Example 461]
pEC50: 6.35

###

target: human F508del-CFTR (Homo sapiens, UniProt P13569, DEL508-508)
protocol.description: F508del-CFTR cell surface expression (corrector activity), DiscoveRx ß-galactosidase complementation chemiluminescence assay in recombinant U2OS cell line
experimental.parameters: U2OS, in relation to Emax of corrector lumacaftor (=100%); arithmetic mean values
Parameter Emax: see the listing below.
observable: Emax (%)

molecule: CCOc1cccc(CCNC(=O)[C@@H]2CC(=O)N(C)[C@@H](CC(C)C)C(=O)N3CCN(C4CC4)C[C@H]3C(=O)N[C@H](Cc3ccccc3)COc3cnc4ccccc4c3C(=O)N2)c1
target: human F508del-CFTR (Homo sapiens, UniProt P13569, DEL508-508)
unit.abbreviation: %
val: 189
//
molecule: CC(C)C[C@H]1C(=O)N(CCC2CCCCC2)CC(=O)N[C@H](Cc2ccccc2)COc2ccc3ccccc3c2C(=O)N[C@H](C(=O)NCCc2ccc3c(c2)OCC3)CC(=O)N1C
target: human F508del-CFTR (Homo sapiens, UniProt P13569, DEL508-508)
unit.abbreviation: %
val: 286
//
molecule: COc1cccc(CCNC(=O)[C@@H]2CC(=O)N(C)[C@@H](CC(C)C)C(=O)N3CCOC[C@H]3C(=O)N[C@H](Cc3ccccc3)COc3ccc4c(C)noc4c3C(=O)N2)c1 (mixture of isomers)
target: human F508del-CFTR (Homo sapiens, UniProt P13569, DEL508-508)
unit.abbreviation: %
val: 171

###

target: human F508del-CFTR (Homo sapiens, UniProt P13569, DEL508-508)
protocol.description: F508del-CFTR cell surface expression (corrector activity), DiscoveRx ß-galactosidase complementation chemiluminescence assay in recombinant U2OS cell line
experimental.parameters: U2OS, in relation to Emax of corrector lumacaftor (=100%); arithmetic mean values
Response field class: string, computed from recorded Emax by ranges range 1: < 200%; range 2: ≥ 200% and < 300%; range 3: ≥ 300%

compound: COc1cccc(CCNC(=O)[C@@H]2CC(=O)N(C)[C@@H](CC(C)C)C(=O)N(C)[C@H](C)C(=O)N[C@H](Cc3ccccc3)COc3ccc4nccn4c3C(=O)N2)c1
label.class: range 3
--
compound: CC(C)C[C@H]1C(=O)N(C)C2(CC2)C(=O)N[C@H](Cc2ccccc2)COc2cnc3ccccc3c2C(=O)N[C@H](C(=O)NCCc2ccc(-n3nccn3)cc2)CC(=O)N1C
label.class: range 2
--
compound: Cc1cc(CCNC(=O)[C@@H]2CC(=O)N(C)[C@@H](CC(C)C)C(=O)N(C)[C@@H](CO)C(=O)N[C@H](Cc3ccccc3)COc3ccc4ccccc4c3C(=O)N2)on1 (racemic)
label.class: range 1
--
compound: COc1cc2c(cc1OC)C(=O)N[C@H](C(=O)NCCc1ccc3c(c1)OCC3)CC(=O)N(C)[C@@H](CC(C)C)C(=O)N(CCC1CCCCC1)CC(=O)N[C@H](Cc1ccccc1)CO2
label.class: range 2
--
compound: Cc1cc(CCNC(=O)[C@@H]2CC(=O)N(C)[C@@H](CC(C)C)C(=O)N(C)[C@H](CC(F)F)C(=O)N[C@H](Cc3ccccc3)COc3cnc4ccccc4c3C(=O)N2)on1
label.class: range 3
--
compound: COc1cc2c(cn1)OC[C@@H](Cc1ccccc1)NC(=O)[C@H]1CCCCN1C(=O)[C@H](CC(C)C)N(C)C(=O)C[C@@H](C(=O)NCCc1cc(C3CC3)no1)NC2=O
label.class: range 2
--
compound: COc1cccc(CCNC(=O)[C@@H]2CC(=O)N(C)[C@@H](CC(C)C)C(=O)N3CCN(CC4CC4)C[C@@H]3C(=O)N[C@H](Cc3ccccc3)COc3ccc4nc(C)oc4c3C(=O)N2)c1
label.class: range 3
--
compound: COc1cccc(CCNC(=O)[C@@H]2CC(=O)N(C)[C@@H](CC(C)C)C(=O)N(C)[C@@H](C)C(=O)N[C@H](Cc3ccccc3)COc3ccc4cc(C)oc4c3C(=O)N2)c1 (mixture of isomers)
label.class: range 2
--
compound: COc1cccc2c1C(=O)N[C@H](C(=O)NCCc1noc(C3CC3)n1)CC(=O)N(C)[C@@H](CC(C)C)C(=O)N(C)[C@H](Cc1nc(-c3ccc(F)cn3)no1)C(=O)N[C@H](Cc1ccccc1)CO2
label.class: range 3
--
compound: CO[C@H]1C[C@]2(C1)C(=O)N[C@H](Cc1ccccc1)COc1ccc3ccccc3c1C(=O)N[C@H](C(=O)NCCc1cc(C)no1)CC(=O)N(C)[C@@H](CC(C)C)C(=O)N2C
label.class: range 3
--
compound: COc1cccc(CCNC(=O)[C@@H]2CC(=O)N(C)[C@@H](CC(C)C)C(=O)N3CCOC[C@@H]3C(=O)N[C@H](Cc3ccccc3)COc3cc4oc(C)nc4cc3C(=O)N2)c1
label.class: range 1

###

target: human F508del-CFTR (Homo sapiens, UniProt P13569, DEL508-508)
protocol.description: F508del-CFTR cell surface expression (corrector activity), DiscoveRx ß-galactosidase complementation chemiluminescence assay in recombinant U2OS cell line
experimental.parameters: EC50, F508del-CFTR cell surface expression, U2OS cells, 16h compound incubation; geomean of several measurements

record.smiles: CC(C)C[C@H]1C(=O)N(C)[C@H](Cc2nc(-c3ccc(F)cn3)no2)C(=O)N[C@H](Cc2ccccc2)COc2cnc3ccc(F)cc3c2C(=O)N[C@H](C(=O)NC[C@@H](O)c2ccccc2)CC(=O)N1C
EC50 / nM: 495
//
record.smiles: COc1cc(CCNC(=O)[C@@H]2CC(=O)N(C)[C@@H](CC(C)C)C(=O)N(C)[C@H](Cc3nc(C(F)(F)F)no3)C(=O)N[C@H](Cc3ccccc3)COc3ccc4cnc(C)cc4c3C(=O)N2)on1
EC50 / nM: 22
//
record.smiles: COc1noc(CCNC(=O)[C@@H]2CC(=O)N(C)[C@@H](CC(C)C)C(=O)N(C)[C@H](CC(F)F)C(=O)N[C@H](Cc3ccccc3)COc3ccc4ncc(F)cc4c3C(=O)N2)n1
EC50 / nM: 281
//
record.smiles: Cc1cc2c3c(ccc2cn1)OC[C@@H](Cc1ccccc1)NC(=O)[C@@H](C)N(C)C(=O)[C@H](CC(C)C)N(C)C(=O)C[C@@H](C(=O)NCCc1nc(C2CC2)no1)NC3=O
EC50 / nM: 283
//
record.smiles: COc1nccc2c1C(=O)N[C@H](C(=O)NCCc1noc(C3CC3)n1)CC(=O)N(C)[C@@H](CC(C)C)C(=O)N(C)[C@H](CCc1nc(C3CCCC3)no1)C(=O)N[C@H](Cc1ccccc1)CO2
EC50 / nM: 111
//
record.smiles: COc1noc(CCNC(=O)[C@@H]2CC(=O)N(C)[C@@H](CC(C)C)C(=O)N(C)[C@H](Cc3nc(-c4ccc(F)cn4)no3)C(=O)N[C@H](Cc3ccccc3)COc3ccc4cnc(C)cc4c3C(=O)N2)n1
EC50 / nM: 487

###

target: human F508del-CFTR (Homo sapiens, UniProt P13569, DEL508-508)
protocol.description: F508del-CFTR cell surface expression (corrector activity), DiscoveRx ß-galactosidase complementation chemiluminescence assay in recombinant U2OS cell line;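 also: U2OS cells co-expressing ProLink-tagged F508del-CFTR and a membrane-anchored enzyme acceptor, where more surface CFTR restores β-galactosidase activity measured by chemiluminescence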
experimental.parameters: EC50, F508del-CFTR cell surface expression, U2OS cells, 16h compound incubation; geomean of several measurements
The threshold is 200 nM. Values of EC50 beneath it are tagged met; values meeting or exceeding it are tagged not met.

record.smiles: Cc1cc(CCNC(=O)[C@@H]2CC(=O)N(C)[C@@H](CC(C)C)C(=O)N3CCN(c4ccc(F)cn4)C[C@@H]3C(=O)N[C@H](Cc3ccccc3)COc3cnc4ccccc4c3C(=O)N2)on1
label.class: met

record.smiles: COc1noc(CCNC(=O)[C@@H]2CC(=O)N(C)[C@@H](CC(C)C)C(=O)N(C)C3(CC(F)(F)C3)C(=O)N[C@H](Cc3ccccc3)COc3ccc4cnc(C)cc4c3C(=O)N2)n1
label.class: not met

record.smiles: COc1cc(CCNC(=O)[C@@H]2CC(=O)N(C)[C@@H](CC(C)C)C(=O)N(C)[C@H](Cc3nc(-c4ccc(F)cn4)no3)C(=O)N[C@H](Cc3ccccc3)COc3cnc4ccc(F)cc4c3C(=O)N2)on1
label.class: met

record.smiles: CC(C)C[C@H]1C(=O)N2CCCC[C@@H]2C(=O)N[C@H](Cc2ccccc2)COc2ccc3ncc(F)cc3c2C(=O)N[C@H](C(=O)NCCc2cnn(C3CC3)n2)CC(=O)N1C
label.class: met

record.smiles: COc1nccc2c1C(=O)N[C@H](C(=O)NCCn1nnc(C3CC3)n1)CC(=O)N(C)[C@@H](CC(C)C)C(=O)N1CCCC[C@@H]1C(=O)N[C@H](Cc1ccccc1)CO2
label.class: not met

record.smiles: COc1nccc2c1C(=O)N[C@H](C(=O)NCCc1noc(C3CC3)n1)CC(=O)N(C)[C@@H](CC(C)C)C(=O)N(C)[C@H](Cc1nc(-c3ccccc3)no1)C(=O)N[C@H](Cc1ccccc1)CO2
label.class: met

record.smiles: Cc1cc2c3c(ccc2cn1)OC[C@@H](Cc1ccccc1)NC(=O)C1(CC1)N(C)C(=O)[C@H](CC(C)C)N(C)C(=O)C[C@@H](C(=O)NCCn1nc2ccccc2n1)NC3=O
label.class: not met

record.smiles: COc1cc(CCNC(=O)[C@@H]2CC(=O)N(C)[C@@H](CC(C)C)C(=O)N(C)[C@]3(C[C@H](OC)C3)C(=O)N[C@H](Cc3ccccc3)COc3ccc4ncc(F)cc4c3C(=O)N2)on1
label.class: not met

record.smiles: CCOCC[C@@H]1C(=O)N[C@H](Cc2ccccc2)COc2ccc3cnc(C)cc3c2C(=O)N[C@H](C(=O)NCCc2cc(OC)no2)CC(=O)N(C)[C@@H](CC(C)C)C(=O)N1C
label.class: not met

record.smiles: CC(C)C[C@H]1C(=O)N(C)[C@H](Cc2nc(C(F)(F)F)no2)C(=O)N[C@H](Cc2ccccc2)COc2ccc3ncc(F)cc3c2C(=O)N[C@H](C(=O)NCCCOC(F)(F)F)CC(=O)N1C
label.class: met

record.smiles: COc1noc(CCNC(=O)[C@@H]2CC(=O)N(C)[C@@H](CC(C)C)C(=O)N(C)[C@H](CC(F)(F)F)C(=O)N[C@H](Cc3ccccc3)COc3ccc4cnc(C)cc4c3C(=O)N2)n1
label.class: not met

record.smiles: COc1nc(C)cc2c1C(=O)N[C@H](C(=O)NCCn1nnc(C3CC3)n1)CC(=O)N(C)[C@@H](CC(C)C)C(=O)N(C)[C@H](Cc1nc(C(F)(F)F)no1)C(=O)N[C@H](Cc1ccccc1)CO2
label.class: met
